Test system: Mycosphaerella graminicola; Anamorph: Septoria tritici; Bayer Code SEPTTR
Assay: Leaf blotch of wheat, foliar fungicide treatment, one day protectant (1DP) or three day curative (3DC)
Assay type: in vivo, Septoria tritici on wheat plants (variety Yuma)
Settings: Zymoseptoria tritici, 24 h, one day protectant (1DP), 100 ppm, rating of percent disease control, read-out: SEPTTR 1DP 100 ppm
Task for the reader: assign each of the following molecules its reported pest or weed control at 100 ppm.

Request: I am curious: what pest or weed control at 100 ppm value has been reported for CC(=O)Nc1nc(OCCNc2ccccc2)ncc1F ?
Response: 0 to 25%

Request: Moving on to the next molecule: Nc1nc(OCc2ccc(F)cc2F)ncc1F
Response: 76 to 100%

Request: Moving on to the next molecule: Cc1cc(C)c(COc2ncc(F)c(/N=C/N(C)C)n2)c(C)c1
Response: 76 to 100%

Request: Moving on to the next molecule: CCCCCC(CC)Oc1ncc(F)c(N)n1 (stereo not drawn)
Response: 0 to 25%

Request: Moving on to the next molecule: COc1cccc(COc2ncc(F)c(-n3ccnc3)n2)c1
Response: 76 to 100%

Request: Moving on to the next molecule: CCOCNc1nc(OC(C)c2ccc(F)cc2)ncc1F (stereo not drawn)
Response: 76 to 100%

Request: Moving on to the next molecule: CNc1nc(OCc2ccc(F)cc2)ncc1F
Response: 0 to 25%

Request: Moving on to the next molecule: Fc1cccc(COc2ncc(F)c(NC(=S)Nc3ccccc3F)n2)c1
Response: 76 to 100%

Request: Moving on to the next molecule: CCOCNc1nc(OCc2ccc(OC)c(F)c2)ncc1F
Response: 76 to 100%

Request: Moving on to the next molecule: CC(C)COC(=O)Oc1ncc(F)c(/N=C/N(C)C)n1
Response: 76 to 100%

Request: Moving on to the next molecule: O=C(Cc1ccccc1)Nc1nc(OCc2cccs2)ncc1F
Response: 76 to 100%

Request: Moving on to the next molecule: CN(C)/C=N/c1nc(OC(=O)c2cccc(Cl)c2)ncc1F
Response: 76 to 100%

Request: Moving on to the next molecule: Nc1nc(OCc2ccc(-c3ccccn3)s2)ncc1F
Response: 76 to 100%

Request: Moving on to the next molecule: CCN(N)c1nc(OCc2cccc(OC)c2)ncc1F
Response: 76 to 100%

Request: Moving on to the next molecule: Nc1nc(OC(c2ccccc2)c2ccc(F)cc2)ncc1F (stereo not drawn)
Response: 76 to 100%

Request: Moving on to the next molecule: COc1ccc(COc2ncc(F)c(NC(=O)Nc3ccccc3F)n2)cc1F
Response: 0 to 25%

Request: Moving on to the next molecule: Cn1nc(Oc2ncc(F)c(N)n2)cc1C(F)(F)F
Response: 0 to 25%

Request: Moving on to the next molecule: Nc1nc(OCc2cccc(I)c2)ncc1F
Response: 76 to 100%

Request: Moving on to the next molecule: COc1ccc(COc2ncc(F)c(N)n2)cc1C(F)(F)F
Response: 76 to 100%

Request: Moving on to the next molecule: COc1c(F)cccc1COc1ncc(F)c(N)n1
Response: 76 to 100%

Request: Moving on to the next molecule: CCC(Nc1nc(OCc2ccc(F)cc2)ncc1F)Nc1nc(OCc2ccc(F)cc2)ncc1F
Response: 51 to 75%
